Taken from patent US20190233498A1.

Entries and their measured IC50, 0.1 nM PACAP27-induced PAC1-R mediated cAMP increase follow.
target: T1, human PACAP27 (human, C-terminal leucine is amidated; 125I-labelled in Example 10)
T1 peptide: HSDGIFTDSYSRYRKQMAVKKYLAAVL
protocol: cell-based or functional assay
Give the quantity in pM, number only.

QUERY: Need IC50, 0.1 nM PACAP27-induced PAC1-R mediated cAMP increase of anti-PACAP antibody Ab12.H (antibody, human IgG1, kappa, N297A, V domains shown, humanized form of Ab12, full length) VH: EVQLVESGGGLVQPGGSLRLSCAASGFSLSSYAMGWVRQAPGKGLEWIGDISTYGTTDYASWVYGRFTISRDNSKNTVYLQMNSLRAEDTAVYFCARDYWLSLWGQGTLVTVSS VL: AAQLTQSPSTLSASVGDRVTITCQSSQSVYDNNALAWYQQKPGKAPKLLIYAASTLASGVPSRFSGSGSGTEFTLTISSLQPDDFATYYCLGGYYDPADNAFGGGTKVEIKR , thanks.
RESULT: 86.3

QUERY: Need IC50, 0.1 nM PACAP27-induced PAC1-R mediated cAMP increase of anti-PACAP antibody Ab3.H (antibody, human IgG1, kappa, N297A, V domains shown, humanized form of Ab3, full length) VH: EVQLVESGGGLVQPGGSLRLSCAASGFSFSSSDYMCWVRQAPGKGLEWIGCIDAGSSGDTYFASSAKGRFTISRDNSKNTVYLQMNSLRAEDTAVYFCARHLYGSITFAFGLWGQGTLVTVSS VL: AAQMTQSPSTLSASVGDRVTITCQASQSIGSDLAWYQQKPGKAPKLLIYDASTLASGVPSRFSGSGSGTEFTLTISSLQPDDFATYYCQGTYYSSGWYTAFGGGTKVEIKR , thanks.
RESULT: 1210

QUERY: Need IC50, 0.1 nM PACAP27-induced PAC1-R mediated cAMP increase of anti-PACAP antibody Ab5.H (antibody, human IgG1, kappa, N297A, V domains shown, humanized form of Ab5, full length) VH: EVQLVESGGGLVQPGGSLRLSCAASGFSLSSYAMIWVRQAPGKGLEWVGIIYDNGDTYYASSAKGRFTISRDNSKNTVYLQMNSLRAEDTAVYFCAREPGSTTQNDLWGQGTLVTVSS VL: DVQMTQSPSTLSASVGDRVTITCQASENIYNSLLWYQQKPGKAPKLLIYRASTLASGVPSRFSGSGSGTEFTLTISSLQPDDFATYYCQNYYNIWTNGAAFGGGTKVEIKR , thanks.
RESULT: 217
